Give measured activity, negative = inhibition for each item. Keep answers brief.
TARGET SYSTEM: Aldehyde dehydrogenase 1A1 (Homo sapiens)
METHOD: qHTS Assay for Inhibitors of Aldehyde Dehydrogenase 1 (ALDH1A1);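 also: plate controls were no enzyme wells and a reference inhibitor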
CONDITIONS USED: Purified ALDH1A1, NADH fluorescence, propionaldehyde substrate; series mostly up to 75.3 µM
Hit rate of the full screen: of about 220,000 compounds, about 16,000 (7.3%) were called active. Inconclusive results (about 25%) are left out. This excerpt belongs to a sample that is enriched for actives.

{"MOLECULE": "CCN1C(=O)N[C@@H](CCc2ccccc2)C(C(=O)OC)=C1C", "activity, negative = inhibition": "5.7% [at 13.5 µM] (inactive)"}

// batch mode: one activity, negative = inhibition value per listed entry
1. COC(=O)C1=C(C(=O)OC)[C@@H]2N(C)c3ccccc3[C@@]23C[C@@H](C(=O)OC)N(S(=O)(=O)c2ccc(Br)cc2)C3=N1
2. COC(=O)CCCC1=CC2=CC(=O)C(C)(OC(=O)c3cccs3)C(=O)C2=CN1CC(C)C (centres undefined)

6.9% [at 13.5 µM] (inactive)
-2.57% [at 13.5 µM] (inactive)

Reported activity, negative = inhibition for C=CC1=C2C=C(C3CC3)N(C(CO)CO)C=C2C(=O)C(C)(OC(=O)c2ccco2)C1=O (centres undefined) was -4.41% [at 13.5 µM] (inactive)

From: PubChem BioAssay AID1030
